System: P388 leukemia ip, CD2F1 mice, survival T/C
assay_remarks: NCI In Vivo Anticancer Drug Screen. Data for tumor model P388 Leukemia (intraperitoneal) in CD2F1 (CDF1) mice
assay_conditions: endpoint: median survival time; dose: 100.0 mg/kg/injection; schedule: Q01DX001 (ip); vehicle: other
Toxic doses and inconclusive results are not listed. The calls were made as follows: active = survival T/C of 150% or more; inactive = T/C below 125% in these data.
Classes to choose from: T for active, F for inactive

Worked set:
- compound: "NS(=O)(=O)OCCCCCCCOS(N)(=O)=O"
  classification: "T"
- compound: "COC(F)C(C)=O (centres undefined)"
  classification: "F"
- compound: "O=C(O)c1cccc(C(=O)O)c1I"
  classification: "F"

Give the logged outcome of this assay for the following compound: CCCCCCCCCCCCCCCCCC(=O)OCCCCCCCCCCCCC F

###

Test system: P388 leukemia ip, CD2F1 mice, survival T/C
assay_remarks: NCI In Vivo Anticancer Drug Screen. Data for tumor model P388 Leukemia (intraperitoneal) in CD2F1 (CDF1) mice
assay_conditions: endpoint: median survival time; dose: 10.0 mg/kg/injection; schedule: Q01DX005 (ip); vehicle: Klucel (hydroxypropylcellulose) (HPC)
Inconclusive results and toxic doses are left out. Rule for the calls: active = survival T/C of 150% or more; inactive = T/C below 125% in these data.
Respond using exactly one of the listed classes: active, inactive

Check out these entries, answers already filled in.
- compound: "CC(C)C1[C@H]2OC(=O)[C@@H]1C1CCC3CN(C)C2C31C (some centres undefined)"
  classification: "inactive"
- compound: "COc1ccccc1OCC(=O)c1ccccc1"
  classification: "inactive"
- compound: "C/C=C/c1ccc(OC(C)C(=O)c2ccc3c(c2)OCO3)c(OC)c1 (centres undefined)"
  classification: "inactive"

Please examine the following record next.
Which outcome was entered for the compound COc1cc2c(c(OC)c1O)-c1ccc(OC)c(=O)cc1[C@@H](NC(=O)C(F)(F)F)CC2 in this test? active

###

Tested on: P388 leukemia ip, CD2F1 mice, survival T/C
assay_remarks: NCI In Vivo Anticancer Drug Screen. Data for tumor model P388 Leukemia (intraperitoneal) in CD2F1 (CDF1) mice
assay_conditions: endpoint: median survival time; dose: 25.0 mg/kg/injection; schedule: Q01DX005 (ip); vehicle: saline; higher = longer survival
Toxic doses and inconclusive results are not listed.
observable: T/C

Examples with their reported T/C follow.
- compound: "CCN(CC)CCN1C(=O)c2cccc3cc(OC)cc(c23)C1=O"
  T/C: "104 % of control"
- compound: "c1cc2cc(C3=NCCN3)[nH]c2cc1C1=NCCN1"
  T/C: "103 % of control"

Provide T/C values for the following items, in order.
1. CC(C)(C)N1CS[C@@H]2CCCC[C@H]21
2. CC1Nc2nc(N)[nH]c(=O)c2NC1C (stereo not drawn)
3. OC(CC1CCCCN1)c1ccccc1 (stereo not drawn)

104 % of control
97 % of control
105 % of control

Below is a list of compounds. For each, state its recorded T/C.
1. COC(=O)CC(N)C(=O)O (stereo not drawn)
2. CCN(CC)CC(O)c1c(OC)ccc2ccccc12 (stereo not drawn)
3. N#Cc1c(-c2ccc(Cl)cc2)c(-c2ccc(Cl)cc2)nn(CCOC(=O)CCC(=O)O)c1=O

1: 89 % of control; 2: 96 % of control; 3: 112 % of control

###

Answer each item with its documented T/C.
Tested on: P388 leukemia ip, CD2F1 mice, survival T/C
assay_remarks: NCI In Vivo Anticancer Drug Screen. Data for tumor model P388 Leukemia (intraperitoneal) in CD2F1 (CDF1) mice
assay_conditions: endpoint: median survival time; dose: 100.0 mg/kg/injection; schedule: Q04DX003 (ip); vehicle: saline with Tween-80; higher = longer survival
Experimental: The antitumor activity of compounds was measured in mice bearing transplantable tumors. Survival or tumor size were measured and the results are expressed as the measurement made in the treated group (T) divided by the measurement made in the vehicle treated control group (C). The tumor model used in this assay is P388 Leukemia (intraperitoneal) in CD2F1 (CDF1) mice
Toxic doses and inconclusive results are not listed.

- molecule: "COc1ccc(/C=N/NC(N)=S)cc1"
  T/C: "100 % of control"
- molecule: "O=C1Cc2ccccc2C(=O)N1"
  T/C: "100 % of control"
- molecule: "COc1cc(/C=C/C(N)=O)cc(OC)c1OC"
  T/C: "90 % of control"
- molecule: "Nc1cccc2ccccc12"
  T/C: "94 % of control"
- molecule: "N#CCSc1nc(N)nc2nc[nH]c12"
  T/C: "100 % of control"

Your task in this section: give T/C for each listed record.
1. CS(=O)(=O)OCCCCO
2. CCSc1ncnc2c1ncn2C1OC(CO)C(O)C1O (stereo not drawn)

100 % of control
104 % of control

# map each molecule to its T/C
1. FC(F)(F)COP(OCC(F)(F)F)OCC(F)(F)F
2. CC(=O)NC(CSC(c1ccccc1)c1ccccc1)C(C)=O (stereo not drawn)
3. Cc1ccc(Cl)cc1NS(=O)(=O)c1ccc(Br)cc1
4. COC(=O)C(C)NC(=O)Cc1ccccc1 (stereo not drawn)

1. 118 % of control
2. 103 % of control
3. 100 % of control
4. 104 % of control

Would you be so kind as to report T/C for each listed record?
1. CCCCC(CC)CO.[Ti] (stereo not drawn)
2. Cc1ccc(Cl)cc1N=Cc1ccccc1O
3. Cc1cccc2nnc(CCCc3nnc4cccc(C)n34)n12
4. CCCN(CCC)CCC(=O)OCC

100 % of control
100 % of control
98 % of control
118 % of control

Fill in T/C for each of the 3 molecules listed.
1. CS(=O)(=O)OCCN(CCOS(C)(=O)=O)c1cccc(C(F)(F)F)c1
2. CCOc1ccc(Cc2nc3c([nH]2)c(=O)n(C)c(=O)n3C)cc1OCC
3. O=C(Cl)c1ccccc1Sc1ccccc1

1. 87 % of control
2. 103 % of control
3. 100 % of control

# return T/C for each item in the list
1. CN(C)C(=S)/N=C1/SCS(=O)(=O)N1c1ccccc1
2. CCOC(OCC)c1ccc([N+](=O)[O-])cc1

1: 104 % of control; 2: 106 % of control

Provide reported T/C for each item, in the same order as listed.
1. O=[N+]([O-])c1cccc(SNc2cccc(Cl)c2)c1
2. CCSC(=O)N1c2ccc(OC)cc2C=CC1C#N (stereo not drawn)
3. Cc1ccc(NC(=O)N(CCCCl)N=O)cc1
4. CCCC(=O)Nc1ccc([N+](=O)[O-])cc1OC

1. 86 % of control
2. 109 % of control
3. 95 % of control
4. 88 % of control

Consider the following items and state reported T/C for each.
1. OCCN1CCOCC1
2. Nc1nc(N)c(N)c(N)n1
3. Cc1ccc2[nH]c(=O)oc(=O)c2c1
4. CC(=O)OCCn1c2ccccc2nc2cc3c(cc21)c(Cl)c(=O)c1ccccc13

95 % of control
104 % of control
108 % of control
100 % of control
